System: Aeromonas 2 (Aeromonas sobria)
Assay: relative growth (AUC of 72 h growth curve relative to DMSO control, dAUC) (ratio); higher = more growth (less inhibition), active = hit call of the paper
Conditions: 20 µM
RESULT TYPE: relative growth
Form: value (number only, do not type unit).

The cases that follow already have their relative growth on record.
COMPOUND	VALUE
CCN(CC)c1nc(C)cc(OP(=S)(OC)OC)n1	0.982
COC(=O)c1ccccc1S(=O)(=O)NC(=O)Nc1nc(C)nc(OC)n1	1.01
CC(COc1ccc(Oc2ccccc2)cc1)Oc1ccccn1 (stereo unspecified)	0.997
N#C/N=C1\SCCN1Cc1ccc(Cl)nc1	1
CN/C(=N/CC1CCOC1)N[N+](=O)[O-] (stereo unspecified)	1.02

Turning to the following compound.
Input: Complete the entry with relative growth for `CS(=O)(=O)NC(=O)c1cc(Oc2ccc(C(F)(F)F)cc2Cl)ccc1[N+](=O)[O-]`
Output: 1.02
